- target desc: PRMT5-MEP50 enzyme complex (Homo sapiens, UniProt O14744)
- Construct: 1.25 nM of Full-length (FL)-PRMT5-MEP50 enzyme complex; made in house; host or cells: baculovirus-transfected Sf21 cells
- Sequence (O14744 whole entry): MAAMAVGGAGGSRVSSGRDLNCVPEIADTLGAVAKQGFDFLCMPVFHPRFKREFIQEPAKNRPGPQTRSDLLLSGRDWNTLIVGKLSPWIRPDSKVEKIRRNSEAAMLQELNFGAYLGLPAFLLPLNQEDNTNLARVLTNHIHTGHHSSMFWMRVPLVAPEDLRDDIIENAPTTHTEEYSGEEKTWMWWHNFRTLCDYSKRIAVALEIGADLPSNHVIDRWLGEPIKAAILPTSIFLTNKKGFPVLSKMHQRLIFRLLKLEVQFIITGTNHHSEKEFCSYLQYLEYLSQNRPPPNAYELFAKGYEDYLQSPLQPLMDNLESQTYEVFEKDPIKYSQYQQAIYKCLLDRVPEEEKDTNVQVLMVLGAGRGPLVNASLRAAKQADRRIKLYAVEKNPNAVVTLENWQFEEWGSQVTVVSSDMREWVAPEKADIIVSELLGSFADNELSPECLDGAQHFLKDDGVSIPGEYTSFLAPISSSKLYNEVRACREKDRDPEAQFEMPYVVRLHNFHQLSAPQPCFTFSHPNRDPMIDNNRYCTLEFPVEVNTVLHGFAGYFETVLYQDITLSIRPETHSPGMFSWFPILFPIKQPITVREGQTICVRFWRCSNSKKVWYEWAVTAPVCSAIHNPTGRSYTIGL
- Sequence (Q9BQA1 whole entry partner): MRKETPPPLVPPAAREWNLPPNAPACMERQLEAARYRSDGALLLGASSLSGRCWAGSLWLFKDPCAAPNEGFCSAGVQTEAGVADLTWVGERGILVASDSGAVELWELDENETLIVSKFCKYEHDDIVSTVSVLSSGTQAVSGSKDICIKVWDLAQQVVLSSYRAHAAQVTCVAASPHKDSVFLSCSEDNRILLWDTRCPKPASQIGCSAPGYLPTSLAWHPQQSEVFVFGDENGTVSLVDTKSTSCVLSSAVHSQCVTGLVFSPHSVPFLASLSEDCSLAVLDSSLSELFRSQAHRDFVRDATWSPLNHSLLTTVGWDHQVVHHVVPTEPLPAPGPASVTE
- protocol description: PRMT5-MEP50 Enzyme Methylation Assay
- Format: biochemical
- study conditions: single EC50 from 4 parameters single site sigmoidal model, or first EC50 of 7 parameters biphasic model; 1.0 nM PRMT5-MEP50, H4R3(Me1) peptide, SAM; read-out: Enzyme Methylation Assay (EC50 or EC50_1)
measurement label: EC50 (nM)
Numeric answer only, unit nM assumed.

[Q] Sample `Cc1ncnc2c1ccn2[C@@H]1S[C@H](CCc2ccc3cc(F)c(N)nc3c2)[C@@H](O)[C@H]1O` — what was its EC50?
[A] 10.1

[Q] Data request, read-out EC50, for `Cc1cn([C@@H]2S[C@H](CCc3ccc4cc(Br)c(N)nc4c3)[C@@H](O)[C@H]2O)c2ncnc(N)c12`
[A] 0.5

[Q] Reported EC50, compound `Cc1ncnc2c1ccn2[C@@H]1S[C@@H](CCc2ccc3cc(C(F)F)c(N)nc3c2)[C@@H](O)[C@H]1O` : ____
[A] 1.2

[Q] What does the data say about its EC50? Entry: `Cc1ncnc2c1ccn2[C@@H]1S[C@H](CCc2ccc3ccc(NCC(F)F)nc3c2)[C@@H](O)[C@H]1O`
[A] 59.6

[Q] Tell me the measured EC50 of `Cc1ncnc2c1ccn2[C@@H]1S[C@@H](CCc2ccc3cc(Cl)c(N)nc3c2)[C@@H](O)[C@H]1O` , please.
[A] 1.3

[Q] Please look up its EC50: `C[C@]1(CCc2ccc3cc(Br)c(N)nc3c2)S[C@@H](n2ccc3c(Cl)ncnc32)[C@H](O)[C@@H]1O`
[A] 0.7

[Q] I'd like to know its EC50. The compound in question is `Nc1nc2cc(OC[C@H]3S[C@@H](n4ccc5c(N)ncnc54)[C@H](O)[C@@H]3O)ccc2cc1Cl`
[A] 2.2

[Q] Can you look up the measured EC50 of `Cc1nc(N)nc2c1ccn2[C@@H]1S[C@H](CCc2ccc3cc(Br)c(N)nc3c2)[C@@H](O)[C@H]1O` for me?
[A] 0.5

[Q] Item under review: `CNc1ncnc2c1ccn2[C@@H]1S[C@](C)(CCc2ccc3cc(Br)c(N)nc3c2)[C@@H](O)[C@H]1O` . Reported EC50?
[A] 0.8

[Q] Endpoint output: EC50 of `Cc1ncnc2c1ccn2[C@@H]1S[C@H](CCc2ccc3cc(Br)c(N)nc3c2)[C@@H](O)[C@H]1O` . Value?
[A] 2.2

[Q] GET /values?readout=EC50&item= `Nc1nc2cc(OC[C@H]3S[C@@H](n4ccc5c(N)ncnc54)[C@H](O)[C@@H]3O)ccc2cc1Br`
[A] 0.3

[Q] Given the compound `Nc1nc2cc(CC[C@H]3S[C@@H](n4ccc5c(N)ncnc54)[C@H](O)[C@@H]3O)ccc2cc1Cl` , what is its reported EC50?
[A] 0.7

[Q] So what does the record say about EC50 for `Cc1nc(N)c2ccn([C@@H]3S[C@H](CCc4ccc5cc(Br)c(N)nc5c4)[C@@H](O)[C@H]3O)c2n1` ?
[A] 1.7

[Q] # query: EC50 of entry `Nc1nc2cc(OC[C@H]3S[C@@H](n4ccc5c(N)ncnc54)[C@H](O)[C@@H]3O)ccc2cc1F`
[A] 6

[Q] Data request, read-out EC50, for `Cc1ncnc2c1ccn2[C@@H]1S[C@H](CCc2ccc3cc(Cl)c(N)nc3c2)[C@@H](O)[C@H]1O`
[A] 1.5

[Q] Which EC50 is reported for this compound? `Nc1ccc2ccc(OC[C@H]3S[C@@H](n4ccc5c(N)ncnc54)[C@H](O)[C@@H]3O)cc2n1`
[A] 0.7

[Q] Which EC50 reading was recorded for the compound `C[C@]1(COc2ccc3cc(Br)c(N)nc3c2)S[C@@H](n2ccc3c(Cl)ncnc32)[C@H](O)[C@@H]1O` ?
[A] 9.8
